// reported MIC for each item listed
system: Bacillus cereus; assay: microbe, parasite or virus in culture; type: functional; conditions: ATCC 11778, 24 h
Description: Antimicrobial activity against Bacillus cereus ATCC 11778 after 24 hrs by agar streak dilution method
Reply with just the number (in µg/mL).

N#CC1=C(N)OC(c2c[nH]c3ccccc23)=C(C#N)C1c1ccccc1F (stereo not given)
22.6
COc1ccc(C2C(C#N)=C(N)OC(c3c[nH]c4ccccc34)=C2C#N)cc1OC (stereo not given)
25.4
O=C(O)c1cn(C2CC2)c2cc(N3CCNCC3)c(F)cc2c1=O [CIPROFLOXACIN]
0.3
N#CC1=C(N)OC(c2c[nH]c3ccccc23)=C(C#N)C1c1ccccc1 (stereo not given)
18.5

// switching to the query compound
Problem: Look at this compound and give its reported MIC. N#CC1=C(N)OC(c2c[nH]c3ccccc23)=C(C#N)C1c1cccc2ccccc12 (stereo not given)
Result: 26.2

---

experiment: Antioxidant activity assessed as ABTS radical scavenging activity at 50 ug/ml; format: functional; conditions: at 50 µg/mL
Quantity Name: Activity (%)
Reply with just the number (in %).

O=C1O[C@H]([C@@H](O)CO)C(O)=C1O [ASCORBIC ACID]
28.8
N#CC1=C(N)OC(c2c[nH]c3ccccc23)=C(C#N)C1c1ccc(Br)cc1 (stereo not given)
14.2

Problem: Look at this compound and give its reported Activity. CN(C)c1ccc(C2C(C#N)=C(N)OC(c3c[nH]c4ccccc34)=C2C#N)cc1 (stereo not given)
Result: 14.4

Problem: Look at this compound and give its reported Activity. N#CC1=C(N)OC(c2c[nH]c3ccccc23)=C(C#N)C1c1ccc(F)cc1 (stereo not given)
Result: 8.4

Problem: Look at this compound and give its reported Activity. COc1cc(Br)c(C2C(C#N)=C(N)OC(c3c[nH]c4ccccc34)=C2C#N)cc1OC (stereo not given)
Result: 18.5

---

experiment: Antioxidant activity assessed as ABTS radical scavenging activity at 400 ug/ml; type: functional; conditions: at 400 µg/mL
// reported Activity for each item listed
Reply with just the number (in %).

For orientation, consider the following solved cases.
N#CC1=C(N)OC(c2c[nH]c3ccccc23)=C(C#N)C1c1ccc(Br)cc1 (stereo not drawn)
22.7
N#CC1=C(N)OC(c2c[nH]c3ccccc23)=C(C#N)C1c1cc(Br)c2c(c1)OCO2 (stereo not drawn)
12.5

Problem: Look at this compound and give its reported Activity. N#CC1=C(N)OC(c2c[nH]c3ccccc23)=C(C#N)C1c1ccccc1 (stereo not drawn)
Result: 26.7

Problem: Look at this compound and give its reported Activity. Cc1ccccc1C1C(C#N)=C(N)OC(c2c[nH]c3ccccc23)=C1C#N (stereo not drawn)
Result: 25.7

Problem: Look at this compound and give its reported Activity. CN(C)c1ccc(C2C(C#N)=C(N)OC(c3c[nH]c4ccccc34)=C2C#N)cc1 (stereo not drawn)
Result: 26.7

Problem: Look at this compound and give its reported Activity. N#CC1=C(N)OC(c2c[nH]c3ccccc23)=C(C#N)C1c1ccc(F)cc1 (stereo not drawn)
Result: 26.7

Problem: Look at this compound and give its reported Activity. N#CC1=C(N)OC(c2c[nH]c3ccccc23)=C(C#N)C1c1cccc2ccccc12 (stereo not drawn)
Result: 10.4

Problem: Look at this compound and give its reported Activity. N#CC1=C(N)OC(c2c[nH]c3ccccc23)=C(C#N)C1c1ccccc1Cl (stereo not drawn)
Result: 21.4

Problem: Look at this compound and give its reported Activity. COc1ccc(C2C(C#N)=C(N)OC(c3c[nH]c4ccccc34)=C2C#N)cc1OC (stereo not drawn)
Result: 28.1

Problem: Look at this compound and give its reported Activity. COc1cc(Br)c(C2C(C#N)=C(N)OC(c3c[nH]c4ccccc34)=C2C#N)cc1OC (stereo not drawn)
Result: 26.7

Problem: Look at this compound and give its reported Activity. COc1ccc(C2C(C#N)=C(N)OC(c3c[nH]c4ccccc34)=C2C#N)cc1 (stereo not drawn)
Result: 28.7

Problem: Look at this compound and give its reported Activity. Cc1ccc(C2C(C#N)=C(N)OC(c3c[nH]c4ccccc34)=C2C#N)cc1 (stereo not drawn)
Result: 8.5

Problem: Look at this compound and give its reported Activity. O=C1O[C@H]([C@@H](O)CO)C(O)=C1O
Result: 33.4
